Below is a list of entries, each paired with its recorded IC50 value.
Target or test system: recombinant human GST-SYK (Homo sapiens)
Construct: purchased Carna Biosciences 08-176
Assay comment: Homogeneous Time-Resolved Fluorescence (HTRF) assay for the recombinant human Syk enzyme
Assay type: biochemical
Measurement conditions: GST-hSYK 5 pM, ATP 25 μM, IC50 rated in classes, read-out: rhSYK Activity

Examples from the recorded data:
• CCOC(=O)CCc1ncc(-c2cc(C)cc(Nc3nccc(C)n3)c2)cn1 [Example 1.7] = 100 to 1000 nM
• Cc1cc(Nc2nccc(C(F)(F)F)n2)cc(-c2ccc(-c3ccc(C(=O)O)cc3)nn2)c1 [Example 3.33] = < 100 nM
• CCOC(=O)CCc1cncc(-c2cc(C)cc(Nc3nccc(C4CC4)n3)c2)n1 [Example 3.21] = 100 to 1000 nM
• Cc1cc(Nc2nccc(C(F)(F)F)n2)cc(-c2cnc(NC(C)(C)C(=O)O)nc2)c1 [Example 2.2] = < 100 nM

In the following, a different compound is considered.
Need IC50, item COCCNc1ncc(-c2cc(C)cc(Nc3nccc(C(F)(F)F)n3)c2)cn1 [Example 1.4]
< 100 nM
